Test system: Escherichia coli TOP10;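 further: peptides expressed intracellularly from a pBAD plasmid library in pooled LB shake-flask culture, induced with 0.3% L-arabinose, DNA abundance read by NGS, three biological replicates, DESeq2 with apeglm shrinkage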
Test: shrunken log2 fold change of peptide-encoding DNA abundance (4.5 h post-induction vs induction); higher = less antimicrobial activity (less host growth inhibition)
Conditions: time post-induction: 4.5 h; library: site-saturation at positions 5, 18, 19, 20
List of shrunken log2 fold change values.

Observe how each entry below is paired with its result.
{"residues": "RRIRDRPPRLPRPRPRPEKYPRP", "shrunken log2 fold change": 0.0312}
{"residues": "RRIRCRPPRLPRPRPRPHSLPRP", "shrunken log2 fold change": -0.493}
{"residues": "RRIRMRPPRLPRPRPRPEDVPRP", "shrunken log2 fold change": -0.0102}
{"residues": "RRIRQRPPRLPRPRPRPTCHPRP", "shrunken log2 fold change": -0.552}
{"residues": "RRIRVRPPRLPRPRPRPVWMPRP", "shrunken log2 fold change": 0.52}

Please turn your attention to the following entry.
Identify measured shrunken log2 fold change associated with RRIRARPPRLPRPRPRPYIFPRP
-0.277
